The measurements presented in this section are drawn from ChEMBL document CHEMBL1201862.

# METHOD_NOTES: cells
# Type: functional, cell-based
Calls of active or inactive are those of the source. No stated cut-off is given here; in the data, actives have a measured EC50 and inactives only a lower limit.
TEST_READOUT: EC50

> print(dat)
                                   compound   observed.measurement
1  Cc1ccc(C(CC(=O)O)C2CCOC(C)(C)C2)cc1 (centres undefined)  > 350 µM (not active)
2        c1cnc(N2CCN(c3ccc4ccccc4n3)CC2)nc1  > 350 µM (not active)
3  O=S(=O)(c1cccc(C(F)(F)F)c1)N1CCC(c2nc(O)c3nnn(Cc4cccc(F)c4)c3n2)CC1  > 350 µM (not active)
4  CCCC(=O)NC(c1ccc2c(c1)OCO2)c1cc(Cl)c2cccnc2c1O (centres undefined)       47.7 µM (active)
